target: T1, recombinant human IGF-II (Insulin-like Growth Factor II) (human, UniProt P01344 25-91, biotinylated (Biotinyl-IGF-II, GroPep) where immobilised in SPR, site not stated; not biotinylated in ITC and as SPR analyte); assay: SPR, IGF-II immobilised, kinetic fit
T1 construct: also called IGF2; IGF-2
T1 sequence (P01344 25-91 limits assumed): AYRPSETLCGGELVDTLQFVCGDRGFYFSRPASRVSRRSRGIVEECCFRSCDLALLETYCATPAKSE
Examples of binders with documented koff follow.
Report the figure in s⁻¹ without appending any unit label.

Sample records with koff:
BINDER	RESULT_UNIT	RECORDED_VALUE
IGF2R domain 11 E1544K (amino acids 1511-1650, C-terminal His6 tag, from Pichia pastoris) (receptor, also called enhanced mutant) NEHDDCQVTNPSTGHLFDLSSLSGRAGFTAAYSKKGLVYMSICGENENCPPGVGACFGQTRISVGKANKRLRYVDQVLQLVYKDGSPCPSKSGLSYKSVISFVCRPEAGPTNRPMLISLDKQTCTLFFSWHTPLACEQATHHHHHH	s⁻¹	0.0406
IGF2R domain 11 with leucine at position 1544 (E1544L) (receptor) NEHDDCQVTNPSTGHLFDLSSLSGRAGFTAAYSLKGLVYMSICGENENCPPGVGACFGQTRISVGKANKRLRYVDQVLQLVYKDGSPCPSKSGLSYKSVISFVCRPEAGPTNRPMLISLDKQTCTLFFSWHTPLACEQATHHHHHH	s⁻¹	0.0655

Ask: May I ask what koff has been recorded for wild type IGF2R domain 11 (amino acids 1511-1650) with C-terminal His6 tag, from Pichia pastoris (receptor, also called WT; wild type domain 11) NEHDDCQVTNPSTGHLFDLSSLSGRAGFTAAYSEKGLVYMSICGENENCPPGVGACFGQTRISVGKANKRLRYVDQVLQLVYKDGSPCPSKSGLSYKSVISFVCRPEAGPTNRPMLISLDKQTCTLFFSWHTPLACEQATHHHHHH ?
Reply: 0.0787

Ask: May I ask what koff has been recorded for IGF2R domain 11 with arginine at position 1544 (E1544R) (receptor) NEHDDCQVTNPSTGHLFDLSSLSGRAGFTAAYSRKGLVYMSICGENENCPPGVGACFGQTRISVGKANKRLRYVDQVLQLVYKDGSPCPSKSGLSYKSVISFVCRPEAGPTNRPMLISLDKQTCTLFFSWHTPLACEQATHHHHHH ?
Reply: 0.0407

Ask: May I ask what koff has been recorded for IGF2R domain 11 with glycine at position 1544 (E1544G) (receptor) NEHDDCQVTNPSTGHLFDLSSLSGRAGFTAAYSGKGLVYMSICGENENCPPGVGACFGQTRISVGKANKRLRYVDQVLQLVYKDGSPCPSKSGLSYKSVISFVCRPEAGPTNRPMLISLDKQTCTLFFSWHTPLACEQATHHHHHH ?
Reply: 0.219

Ask: May I ask what koff has been recorded for IGF2R domain 11 E1544V (amino acids 1511-1650, C-terminal His6 tag, from Pichia pastoris) (receptor) NEHDDCQVTNPSTGHLFDLSSLSGRAGFTAAYSVKGLVYMSICGENENCPPGVGACFGQTRISVGKANKRLRYVDQVLQLVYKDGSPCPSKSGLSYKSVISFVCRPEAGPTNRPMLISLDKQTCTLFFSWHTPLACEQATHHHHHH ?
Reply: 0.0675

Ask: May I ask what koff has been recorded for IGF2R domain 11 with phenylalanine at position 1544 (E1544F) (receptor) NEHDDCQVTNPSTGHLFDLSSLSGRAGFTAAYSFKGLVYMSICGENENCPPGVGACFGQTRISVGKANKRLRYVDQVLQLVYKDGSPCPSKSGLSYKSVISFVCRPEAGPTNRPMLISLDKQTCTLFFSWHTPLACEQATHHHHHH ?
Reply: 0.0791
